# Test system: DRG ion channels K+
# protocol_notes: Potassium currents in DRG neurons, patch clamp
# Format: cell-based, rodent
# condition_info: Table 2
assay_metric: IC50

CC(C)(C)NC(=O)CN1CCC(CNC(=O)c2cc(F)cc(Cl)c2)CC1 [Z944, reference compound] ... > 30 µM

# input for lookup
Query (compound): CC(C)(C)NC(=O)CN1CCC2(CC1)C[C@H]2NC(=O)C12CC3CC(CC(C3)C1)C2 (single isomer, unassigned) ; field requested: IC50
> 30 µM

---

inhibition at 1 µM reference
# study_system: Cav3.2 channel (Homo sapiens, UniProt O95180)
# Construct: expressed in transfected cells; host or cells: HEK-293, tetracycline inducible expression system (Invitrogen)
# Sequence (O95180 whole entry): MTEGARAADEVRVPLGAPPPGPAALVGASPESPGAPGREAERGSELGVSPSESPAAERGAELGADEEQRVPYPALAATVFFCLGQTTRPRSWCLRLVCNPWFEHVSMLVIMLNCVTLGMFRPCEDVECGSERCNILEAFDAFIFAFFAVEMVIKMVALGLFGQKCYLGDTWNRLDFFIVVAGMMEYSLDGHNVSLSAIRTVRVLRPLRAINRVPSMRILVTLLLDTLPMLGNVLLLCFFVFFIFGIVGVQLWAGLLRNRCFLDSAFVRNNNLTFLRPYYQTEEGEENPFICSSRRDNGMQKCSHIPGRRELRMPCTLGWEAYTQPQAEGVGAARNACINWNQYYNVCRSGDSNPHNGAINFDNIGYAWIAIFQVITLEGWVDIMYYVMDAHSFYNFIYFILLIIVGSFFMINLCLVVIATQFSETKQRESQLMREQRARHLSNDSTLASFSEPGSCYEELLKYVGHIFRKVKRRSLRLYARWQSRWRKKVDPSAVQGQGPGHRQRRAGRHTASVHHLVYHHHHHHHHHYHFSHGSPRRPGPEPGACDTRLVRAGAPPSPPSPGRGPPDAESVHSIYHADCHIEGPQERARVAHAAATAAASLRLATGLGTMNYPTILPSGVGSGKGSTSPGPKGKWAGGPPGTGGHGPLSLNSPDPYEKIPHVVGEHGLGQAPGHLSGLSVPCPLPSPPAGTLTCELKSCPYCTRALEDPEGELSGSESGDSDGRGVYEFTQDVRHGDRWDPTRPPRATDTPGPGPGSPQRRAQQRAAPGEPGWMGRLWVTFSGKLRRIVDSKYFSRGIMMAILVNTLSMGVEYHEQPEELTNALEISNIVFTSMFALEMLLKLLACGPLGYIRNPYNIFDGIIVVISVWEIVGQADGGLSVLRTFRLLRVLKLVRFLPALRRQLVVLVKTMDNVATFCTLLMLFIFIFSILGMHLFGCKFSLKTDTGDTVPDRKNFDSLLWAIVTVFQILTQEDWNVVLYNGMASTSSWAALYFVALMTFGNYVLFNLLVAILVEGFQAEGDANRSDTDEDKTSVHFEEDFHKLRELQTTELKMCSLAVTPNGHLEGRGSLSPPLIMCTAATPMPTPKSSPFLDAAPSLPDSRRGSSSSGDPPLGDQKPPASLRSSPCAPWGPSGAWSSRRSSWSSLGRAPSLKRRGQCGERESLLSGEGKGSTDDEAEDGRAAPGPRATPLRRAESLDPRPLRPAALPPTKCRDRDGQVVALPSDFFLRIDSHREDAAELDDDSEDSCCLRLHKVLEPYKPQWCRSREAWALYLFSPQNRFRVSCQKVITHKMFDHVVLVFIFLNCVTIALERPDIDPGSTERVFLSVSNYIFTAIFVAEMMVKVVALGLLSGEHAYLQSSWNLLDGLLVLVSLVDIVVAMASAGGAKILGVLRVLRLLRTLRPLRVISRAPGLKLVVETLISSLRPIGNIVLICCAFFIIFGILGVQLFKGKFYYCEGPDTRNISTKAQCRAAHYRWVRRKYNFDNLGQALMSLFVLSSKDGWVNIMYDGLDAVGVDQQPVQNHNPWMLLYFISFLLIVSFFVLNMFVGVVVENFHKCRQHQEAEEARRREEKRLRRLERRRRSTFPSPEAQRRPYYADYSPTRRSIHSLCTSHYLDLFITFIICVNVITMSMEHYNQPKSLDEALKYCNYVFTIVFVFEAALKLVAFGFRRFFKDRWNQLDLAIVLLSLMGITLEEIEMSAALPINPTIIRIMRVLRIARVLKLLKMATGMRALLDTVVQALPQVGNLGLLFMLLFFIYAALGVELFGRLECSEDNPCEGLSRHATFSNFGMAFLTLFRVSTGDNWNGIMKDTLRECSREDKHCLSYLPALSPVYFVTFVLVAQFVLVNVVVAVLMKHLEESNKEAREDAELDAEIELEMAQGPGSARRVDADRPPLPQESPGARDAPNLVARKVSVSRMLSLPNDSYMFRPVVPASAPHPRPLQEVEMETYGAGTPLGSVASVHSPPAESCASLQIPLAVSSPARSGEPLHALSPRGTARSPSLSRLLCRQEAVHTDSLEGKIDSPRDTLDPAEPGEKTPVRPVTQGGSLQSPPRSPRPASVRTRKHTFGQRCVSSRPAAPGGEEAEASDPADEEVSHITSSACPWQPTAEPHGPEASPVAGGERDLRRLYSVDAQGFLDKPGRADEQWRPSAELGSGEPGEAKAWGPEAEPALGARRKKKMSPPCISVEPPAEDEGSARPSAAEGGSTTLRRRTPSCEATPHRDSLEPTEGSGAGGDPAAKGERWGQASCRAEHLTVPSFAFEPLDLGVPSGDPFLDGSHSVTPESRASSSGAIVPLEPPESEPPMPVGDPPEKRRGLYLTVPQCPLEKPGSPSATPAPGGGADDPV
# protocol_notes: Whole-cell patch clamp of T-type Cav3.2 channel expressed in HEK293 cells
# Type: cell-based
# condition_info: HEK293; Table 1 primary screening; 1 μM
Answer with a number only, understood to be in %.

Completed entries (count: 8):
CC(C)(C)CCN1CCC2(CC1)CC2NS(=O)(=O)c1cc(Cl)cc(Cl)c1 (stereo not drawn) [Example 51] ... 47
O=C(Nc1nnc(-c2ccccc2F)o1)c1cnccn1 [Example 127] ... 8.5
Cc1cc(C(=O)Nc2nnc(-c3ccccc3F)o2)no1 [Example 126] ... 5.9
O=C(Nc1nnc(-c2ccc(Cl)s2)o1)c1ccccc1 [Example 117] ... 24
CC(C)(C)NC(=O)CN1CCC(CNC(=O)c2ccccc2)CC1 [Example 96] ... 40
CC1(CNC(=O)c2ccccc2)CCN(CC(=O)NC(C)(C)C)CC1 [Example 107] ... 21
CC(C)(C)CCN1CCC2(CC1)CC2NC(=O)c1cccc(Cl)c1 (stereo not drawn) [Example 21] ... 67
O=C(CN1CCC(CNC(=O)c2ccccc2)CC1)Nc1ccccc1 [Example 101] ... 44

# input for lookup
Query (compound): COc1cccc(C(=O)NCC2(C)CCN(CC(=O)NC(C)(C)C)CC2)c1 [Example 108] ; field requested: inhibition at 1 µM
53

---

# protocol_notes: Metabolic stability in human liver microsomes
# Type: in vitro ADME
assay_metric: half-life
Give me the value, and tack the unit on after it.

Query (molecule): CC(C)(C)NC(=O)CN1CCC2(CC1)CC2NC(=O)c1cc(F)cc(Cl)c1 (single isomer, unassigned) ; field requested: half-life
6.08 h

---

# Tested on: DRG ion channels Na+
# protocol_notes: Sodium currents in DRG neurons, patch clamp
# Assay type: cell-based, rodent
# condition_info: Table 2
assay_metric: pIC50
// scale note: pIC50 = -log10(conc_M); give the bare number

Completed entries (count: 4):
CC(C)(C)CCN1C[C@@H]2[C@@H](CNC(=O)c3cc(Cl)cc(Cl)c3)[C@@H]2C1 [ML218, reference compound] ... 4.25
CC(C)(C)NC(=O)CN1CCC2(CC1)C[C@H]2NC(=O)c1cc(Cl)cc(Cl)c1 (single isomer, unassigned) [Example 57] ... 4.43
CC(C)(C)CCN1CCC2(CC1)C[C@H]2NC(=O)c1cc(C(F)(F)F)ccc1Cl (single isomer, unassigned) [Example 147] ... 4.84
CC(C)(C)NC(=O)CN1CCC2(CC1)C[C@H]2C(=O)Nc1cc(C(F)(F)F)cc(C(F)(F)F)c1 (single isomer, unassigned) [Example 132] ... 4.84

# input for lookup
Query (compound): CC(C)(C)CCN1CCC2(CC1)CC2NC(=O)c1cc(F)cc(Cl)c1 (stereo not shown) [Example 28] ; field requested: pIC50
4.63

---

# protocol_notes: Rat pharmacokinetics
# Assay type: in vivo
# condition_info: plasma, read-out: Rat PK F (%) bioavailability
bioavailability reference
Give me the value, and tack the unit on after it.

Completed entries (count: 2):
CC(C)(C)CCN1C[C@@H]2[C@@H](CNC(=O)c3cc(Cl)cc(Cl)c3)[C@@H]2C1 [ML218, reference compound] ... 28%
CC(C)(C)NC(=O)CN1CCC(CNC(=O)c2cc(F)cc(Cl)c2)CC1 [Z944, reference compound] ... 55%

Query (compound): CC(C)(C)NC(=O)CN1CCC2(CC1)CC2NC(=O)c1cc(F)cc(Cl)c1 (single isomer, unassigned) [Example 128] ; field requested: bioavailability
62%

---

# study_system: Cav3.2 channel (Homo sapiens)
# Construct: expressed in transfected cells; host or cells: HEK-293, tetracycline inducible expression system (Invitrogen)
# protocol_notes: Whole-cell patch clamp of T-type Cav3.2 channel expressed in HEK293 cells
# Type: cell-based
# condition_info: Table 1; tested at at least 4 concentrations; read-out: IC50
assay_metric: log10 of IC50 (log10 of the value in nM)
Each number you see is log10 of IC50, and the unit inside the log is nM.

O=C(NC1CC12CCN(CCc1ccc(F)cc1)CC2)c1cc(Cl)cc(Cl)c1 (stereo not shown) [Example 40] ... 2.20

Query (compound): CC(C)(C)CCN1CCC2(CC1)CC2NC(=O)c1cccc(C#N)c1 (stereo not shown) [Example 34] ; field requested: log10 of IC50
3.15

Query (compound): O=C(NC1CC12CCN(Cc1ccccc1)CC2)c1ccc(Cl)c(Cl)c1 (stereo not shown) [Example 10] ; field requested: log10 of IC50
2.90

Query (compound): CC(C)(C)NC(=O)CN1CCC2(CC1)CC2NC(=O)c1cc(F)cc(Cl)c1 (stereo not shown) [Example 17] ; field requested: log10 of IC50
2.38

Query (compound): COc1ccc(CCN2CCC3(CC2)CC3NC(=O)c2cc(Cl)cc(Cl)c2)cc1 (stereo not shown) [Example 44] ; field requested: log10 of IC50
2.00

Query (compound): CC(C)CN1CCC2(CC1)CC2NC(=O)c1cc(Cl)cc(Cl)c1 (stereo not shown) [Example 11] ; field requested: log10 of IC50
2.62

Query (compound): CC(C)(C)NC(=O)CN1CCC2(CC1)CC2NC(=O)c1cc(F)cc(C(F)(F)F)c1 (stereo not shown) [Example 18] ; field requested: log10 of IC50
2.40

Query (compound): CC(C)(C)CCN1CCC2(CC1)CC2NC(=O)c1cc(C(F)(F)F)cc(C(F)(F)F)c1 (stereo not shown) [Example 19] ; field requested: log10 of IC50
1.48

Query (compound): O=C(NC1CC12CCN(CC(c1ccccc1)c1ccccc1)CC2)c1cc(Cl)cc(Cl)c1 (stereo not shown) [Example 39] ; field requested: log10 of IC50
1.78

Query (compound): CC(C)(C)C(=O)CN1CCC2(CC1)C[C@H]2NC(=O)c1cc(F)cc(Cl)c1 (single isomer, unassigned) [Example 134] ; field requested: log10 of IC50
2.08

Query (compound): O=C(NC1CC12CCN(CCc1ccccc1)CC2)c1ccc(Cl)c(Cl)c1 (stereo not shown) [Example 8] ; field requested: log10 of IC50
2.08

Query (compound): CC(C)(C)NC(=O)CN1CCC2(CCC2NC(=O)c2cc(Cl)cc(Cl)c2)CC1 (stereo in doubt) [Example 114] ; field requested: log10 of IC50
2.36

Query (compound): CC(C)(C)NC(=O)CN1CCC2(CC1)C[C@H]2NC(=O)C12CC3CC(CC(C3)C1)C2 (single isomer, unassigned) [Example 145] ; field requested: log10 of IC50
2.15

Query (compound): O=C(NCC1CC12CCN(CCc1ccccc1)CC2)c1cc(Cl)cc(Cl)c1 (stereo not shown) [Example 89] ; field requested: log10 of IC50
1.95

Query (compound): CC(C)NC(=O)CN1CCC2(CC1)CC2NC(=O)c1cc(F)cc(Cl)c1 (single isomer, unassigned) [Example 140] ; field requested: log10 of IC50
2.72

Query (compound): CC(C)(C)CCN1CCC2(CC1)CC2NC(=O)c1cc(Cl)cc(Cl)c1 (stereo not shown) [Example 12] ; field requested: log10 of IC50
1.70

---

IC50 reference
# study_system: hERG channel (Homo sapiens)
# Construct: expressed in transfected cells; host or cells: CHO
# Sequence (Q12809 whole entry): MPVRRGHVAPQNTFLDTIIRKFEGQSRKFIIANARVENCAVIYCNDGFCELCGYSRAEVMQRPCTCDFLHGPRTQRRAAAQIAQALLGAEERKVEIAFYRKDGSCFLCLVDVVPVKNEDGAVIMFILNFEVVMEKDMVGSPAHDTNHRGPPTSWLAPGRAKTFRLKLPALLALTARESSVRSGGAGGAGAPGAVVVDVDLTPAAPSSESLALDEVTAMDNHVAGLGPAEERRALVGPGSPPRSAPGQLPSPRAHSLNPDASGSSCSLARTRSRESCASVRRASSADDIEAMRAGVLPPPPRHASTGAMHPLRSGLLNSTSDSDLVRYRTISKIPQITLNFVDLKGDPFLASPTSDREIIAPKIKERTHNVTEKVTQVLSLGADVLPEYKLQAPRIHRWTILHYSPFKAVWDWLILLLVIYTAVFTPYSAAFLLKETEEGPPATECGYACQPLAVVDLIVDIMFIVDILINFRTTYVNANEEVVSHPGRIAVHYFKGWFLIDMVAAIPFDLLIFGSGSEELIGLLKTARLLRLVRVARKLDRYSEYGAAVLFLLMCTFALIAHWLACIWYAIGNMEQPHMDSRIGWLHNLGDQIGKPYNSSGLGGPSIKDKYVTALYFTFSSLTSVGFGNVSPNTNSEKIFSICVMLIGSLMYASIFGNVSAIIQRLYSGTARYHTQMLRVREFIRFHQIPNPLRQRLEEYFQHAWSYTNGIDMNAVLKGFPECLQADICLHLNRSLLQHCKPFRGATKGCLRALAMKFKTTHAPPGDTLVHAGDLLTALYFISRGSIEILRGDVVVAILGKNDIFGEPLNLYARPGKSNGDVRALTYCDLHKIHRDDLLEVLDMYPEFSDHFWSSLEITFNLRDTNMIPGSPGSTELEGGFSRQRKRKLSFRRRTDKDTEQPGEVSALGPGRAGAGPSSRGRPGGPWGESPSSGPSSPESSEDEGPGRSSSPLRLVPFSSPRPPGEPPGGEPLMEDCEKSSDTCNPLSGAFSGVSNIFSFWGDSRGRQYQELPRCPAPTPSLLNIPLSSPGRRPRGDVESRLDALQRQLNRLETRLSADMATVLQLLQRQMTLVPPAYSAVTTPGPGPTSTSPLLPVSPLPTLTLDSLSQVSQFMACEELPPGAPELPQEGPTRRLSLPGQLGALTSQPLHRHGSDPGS
# protocol_notes: hERG patch clamp in hERG-expressing CHO cells
# Type: cell-based
# condition_info: Table 2; read-out: hERG IC50
Answer with a number only, understood to be in µM.

Completed entries (count: 3):
CC(C)(C)NC(=O)CN1CCC2(CC1)CC2C(=O)Nc1cc(F)cc(C(F)(F)F)c1 (stereo not drawn) [Example 141] ... 17.4
CC(C)(C)NC(=O)CN1CCC2(CC1)C[C@H]2NC(=O)c1cc(C(F)(F)F)cc(C(F)(F)F)c1 (single isomer, unassigned) [Example 144] ... 4.6
CC(C)(C)NC(=O)CN1CCC(CNC(=O)c2cc(F)cc(Cl)c2)CC1 [Z944, reference compound] ... 9.5

Query (compound): CC(C)(C)CCN1CCC2(CC1)C[C@H]2NC(=O)c1cc(C(F)(F)F)cc(C(F)(F)F)c1 (single isomer, unassigned) [Example 146] ; field requested: IC50
1.2

Query (compound): CC(C)(C)CCN1C[C@@H]2[C@@H](CNC(=O)c3cc(Cl)cc(Cl)c3)[C@@H]2C1 [ML218, reference compound] ; field requested: IC50
2.1
